Task for the reader: assign each of the following compounds its reported melting point.

// below: answered compounds
# COMPOUND, melting point
measured = [
    ("C[C@H](c1nc2cccc(F)c2c(=O)n1-c1ccccc1)n1nc(-c2ccc(O)c(F)c2)c2c(N)ncnc21 [Example 16b]", "269 to 271 °C"),
    ("CC(C)Oc1ccc(-c2nn(C(C)c3cc4cccc(Cl)c4c(=O)n3-c3ccccc3)c3ncnc(N)c23)cc1F (stereo not drawn)", "164 to 166 °C"),
    ("C[C@H](c1cc2cccc(F)c2c(=O)n1-c1ccccc1)n1nc(-c2ccc(O)c(F)c2)c2c(N)ncnc21 [Example 15b]", "258 to 260 °C"),
    ("CC(c1cc2cccc(Cl)c2c(=O)n1-c1ccccc1)n1nc(-c2ccc(O)c(F)c2)c2c(N)ncnc21 (stereo not drawn)", "218 to 219 °C"),
    ("COc1ccc(-c2nn(C(C)c3cc4ccccc4c(=O)n3-c3ccccc3)c3ncnc(N)c23)cc1NS(C)(=O)=O (stereo not drawn)", "260 to 263 °C"),
]

Here is the next item to consider.
Report melting point for CC(c1nc2ccc(F)cc2c(=O)n1-c1ccccc1)n1nc(-c2ccc(O)c(F)c2)c2c(N)ncnc21 (stereo not drawn) please.
231 to 232 °C

* * *

TESTED_TARGET: PI3Kδ (Homo sapiens)
Sequence (O00329 whole entry): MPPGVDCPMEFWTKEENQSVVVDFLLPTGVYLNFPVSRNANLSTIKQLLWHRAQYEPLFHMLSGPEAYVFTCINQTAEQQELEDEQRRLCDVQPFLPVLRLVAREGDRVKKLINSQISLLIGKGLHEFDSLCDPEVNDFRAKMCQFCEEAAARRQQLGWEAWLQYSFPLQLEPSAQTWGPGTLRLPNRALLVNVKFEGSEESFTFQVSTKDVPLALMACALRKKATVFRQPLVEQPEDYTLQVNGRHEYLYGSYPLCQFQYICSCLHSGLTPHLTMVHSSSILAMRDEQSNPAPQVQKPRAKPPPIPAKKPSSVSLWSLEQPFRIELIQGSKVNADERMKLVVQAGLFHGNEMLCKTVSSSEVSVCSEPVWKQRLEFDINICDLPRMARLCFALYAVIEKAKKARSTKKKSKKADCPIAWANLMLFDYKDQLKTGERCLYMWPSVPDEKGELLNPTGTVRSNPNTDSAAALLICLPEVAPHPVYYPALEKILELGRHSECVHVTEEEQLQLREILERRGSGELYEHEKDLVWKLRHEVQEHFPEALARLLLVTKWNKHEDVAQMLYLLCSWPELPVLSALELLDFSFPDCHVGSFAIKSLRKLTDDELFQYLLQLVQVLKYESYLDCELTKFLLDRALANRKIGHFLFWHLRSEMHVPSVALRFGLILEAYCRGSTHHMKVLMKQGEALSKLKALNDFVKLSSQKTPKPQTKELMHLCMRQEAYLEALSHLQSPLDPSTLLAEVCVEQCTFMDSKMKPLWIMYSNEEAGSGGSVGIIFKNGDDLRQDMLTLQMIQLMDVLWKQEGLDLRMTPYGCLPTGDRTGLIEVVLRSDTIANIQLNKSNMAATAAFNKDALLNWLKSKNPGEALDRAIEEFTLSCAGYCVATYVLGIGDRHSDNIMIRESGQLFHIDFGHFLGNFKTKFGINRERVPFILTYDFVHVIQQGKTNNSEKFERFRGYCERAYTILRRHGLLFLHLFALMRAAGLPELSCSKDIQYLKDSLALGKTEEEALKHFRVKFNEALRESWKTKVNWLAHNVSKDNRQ
Sequence (P27986 whole entry partner): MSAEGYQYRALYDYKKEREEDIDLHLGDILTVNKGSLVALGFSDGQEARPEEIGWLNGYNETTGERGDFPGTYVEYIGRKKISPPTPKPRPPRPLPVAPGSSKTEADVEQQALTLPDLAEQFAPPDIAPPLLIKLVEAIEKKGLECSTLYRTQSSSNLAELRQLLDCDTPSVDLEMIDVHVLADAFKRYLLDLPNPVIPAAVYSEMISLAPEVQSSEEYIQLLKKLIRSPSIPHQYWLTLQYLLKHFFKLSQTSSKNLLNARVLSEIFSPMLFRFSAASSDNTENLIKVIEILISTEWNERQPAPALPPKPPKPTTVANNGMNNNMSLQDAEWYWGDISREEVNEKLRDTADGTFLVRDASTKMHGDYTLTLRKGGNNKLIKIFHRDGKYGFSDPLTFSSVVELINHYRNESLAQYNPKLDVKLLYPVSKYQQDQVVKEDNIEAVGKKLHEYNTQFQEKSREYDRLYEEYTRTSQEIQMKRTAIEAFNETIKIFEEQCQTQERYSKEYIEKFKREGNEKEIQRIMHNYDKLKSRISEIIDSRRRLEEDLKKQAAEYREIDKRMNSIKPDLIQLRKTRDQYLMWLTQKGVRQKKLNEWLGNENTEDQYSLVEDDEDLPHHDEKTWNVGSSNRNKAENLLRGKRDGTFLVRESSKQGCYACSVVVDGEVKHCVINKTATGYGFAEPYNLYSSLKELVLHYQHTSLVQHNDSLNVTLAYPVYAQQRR
ASSAY_PROCEDURE: Fluorescent determination of PI3Kinase enzyme activity (HTRF), PI3Kδ
Assay type: biochemical
STATED_CONDITIONS: 100 nM (underlined values: 300 nM)
Task for the reader: assign each of the following compounds its reported inhibition at 0.1 µM.

// below: answered compounds
# COMPOUND, inhibition at 0.1 µM
rows = [
    ("CC(c1nc2ccc(F)cc2c(=O)n1-c1ccccc1)n1nc(-c2ccc(O)c(F)c2)c2c(N)ncnc21 (centres unmarked) [Example 13]", "20 to 40%"),
    ("Cc1n[nH]c2cc(-c3nn([C@@H](C)c4cc5cccc(Cl)c5c(=O)n4-c4ccccc4)c4ncnc(N)c34)ccc12 [Example 21a]", "80 to 100%"),
    ("C[C@@H](c1cc2ccccc2c(=O)n1-c1ccccc1)n1nc(-c2ccc(O)c(F)c2)c2c(N)ncnc21 [Example 7a]", "60 to 80%"),
    ("CC(c1cc2ccccc2c(=O)n1-c1ccccc1)n1nc(-c2ccc(O)c(F)c2)c2c(N)ncnc21 (centres unmarked) [Example 7]", "40 to 60%"),
    ("COc1ccc(-c2nn([C@@H](C)c3cc4cccc(Cl)c4c(=O)n3-c3ccccc3)c3ncnc(N)c23)cc1NS(C)(=O)=O [Example 20a]", "60 to 80%"),
]

Required: inhibition at 0.1 µM, one value per compound below.
1. CC(C)Oc1ccc(-c2nn(C(C)c3nc4ccc(F)cc4c(=O)n3-c3ccccc3)c3ncnc(N)c23)cc1F (centres unmarked) [Example 4]
2. C[C@@H](c1nc2cccc(F)c2c(=O)n1-c1ccccc1)n1nc(-c2ccc(O)c(F)c2)c2c(N)ncnc21 [Example 16a]

1: 0 to 20%; 2: 80 to 100%

Required: inhibition at 0.1 µM, one value per compound below.
1. CC(C)Oc1ccc(-c2nn(C(C)c3cc4cccc(Cl)c4c(=O)n3-c3ccccc3)c3ncnc(N)c23)cc1F (centres unmarked) [Example 1]
2. COc1ccc(-c2nn([C@H](C)c3cc4cccc(Cl)c4c(=O)n3-c3ccccc3)c3ncnc(N)c23)cc1NS(C)(=O)=O [Example 20b]
3. COc1ccc(-c2nn([C@@H](C)c3cc4ccccc4c(=O)n3-c3ccccc3)c3ncnc(N)c23)cc1NS(C)(=O)=O [Example 9a]
4. CC(c1cc2cccc(Cl)c2c(=O)n1-c1ccccc1)n1nc(-c2ccc(OC(F)F)c(F)c2)c2c(N)ncnc21 (centres unmarked) [Example 17]
5. CC(C)Oc1ccc(-c2nn(C(C)c3nc4ccccc4c(=O)n3-c3ccccc3)c3ncnc(N)c23)cc1F (centres unmarked) [Example 6]
6. COc1ccc(-c2nn(C(C)c3cc4ccccc4c(=O)n3-c3ccccc3)c3ncnc(N)c23)cc1NS(C)(=O)=O (centres unmarked) [Example 9]
7. CC(c1nc2ccccc2c(=O)n1-c1ccccc1)n1nc(-c2ccc(O)c(F)c2)c2c(N)ncnc21 (centres unmarked) [Example 8]

1: 20 to 40%; 2: 20 to 40%; 3: 80 to 100%; 4: 80 to 100%; 5: 80 to 100%; 6: 40 to 60%; 7: 20 to 40%
